Origin of values: patent US20090036528A1

- TARGET_OF_ASSAY: KLK7/SCCE (Homo sapiens, UniProt P49862)
- Sequence (P49862 30-253): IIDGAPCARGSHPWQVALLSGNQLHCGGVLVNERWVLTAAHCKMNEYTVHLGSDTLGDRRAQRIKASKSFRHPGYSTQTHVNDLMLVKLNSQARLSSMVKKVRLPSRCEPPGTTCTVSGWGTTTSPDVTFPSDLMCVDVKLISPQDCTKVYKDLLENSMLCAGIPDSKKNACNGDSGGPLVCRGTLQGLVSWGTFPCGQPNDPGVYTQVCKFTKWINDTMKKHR
- ASSAY_SUMMARY: enzyme inhibition KLK7/SCCE
- REPORTED_CONDITIONS: approximate; read-out: IC50 (50% inhibition) KLK7/SCCE
- Source text: It is understood that aspartame, FUTHAN, and combinations thereof may be utilized.
MEASURE: IC50

Ask | Please give measured IC50 of the following entry: N=C(N)c1ccc2cc(OC(=O)c3ccc(N=C(N)N)cc3)ccc2c1 [FUTHAN, dimethanesulfonate]
Reply | ~80 µM

----------
- TARGET_OF_ASSAY: pancreatic kallikrein (Homo sapiens, UniProt P06870)
- Sequence (P06870 25-262): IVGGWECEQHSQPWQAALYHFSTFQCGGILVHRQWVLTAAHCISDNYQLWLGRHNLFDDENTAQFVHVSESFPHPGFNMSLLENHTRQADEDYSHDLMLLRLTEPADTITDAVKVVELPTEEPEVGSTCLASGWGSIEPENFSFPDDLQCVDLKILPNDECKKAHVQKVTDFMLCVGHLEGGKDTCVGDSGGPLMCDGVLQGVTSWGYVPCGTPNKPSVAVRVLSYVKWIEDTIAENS
pIC50: −log10 of the molar value.
MEASURE: pIC50

Ask | Report the value of pIC50 obtained on pancreatic kallikrein (Homo sapiens, UniProt P06870) for N=C(N)c1ccc2cc(OC(=O)c3ccc(N=C(N)N)cc3)ccc2c1 [FUTHAN, dimethanesulfonate] .
Reply | ~4.70
